Where do these numbers come from? They come from patent US20230365576A1.

tested-on: SMARCA2 (Homo sapiens, UniProt P51531)
Construct: SMARCA2-HiBiT knock-in Hela monoclonal cell (CS302366); host or cells: HeLa (CRISPR HiBiT knock-in monoclonal line, heterozygous)
Sequence (P51531 whole entry): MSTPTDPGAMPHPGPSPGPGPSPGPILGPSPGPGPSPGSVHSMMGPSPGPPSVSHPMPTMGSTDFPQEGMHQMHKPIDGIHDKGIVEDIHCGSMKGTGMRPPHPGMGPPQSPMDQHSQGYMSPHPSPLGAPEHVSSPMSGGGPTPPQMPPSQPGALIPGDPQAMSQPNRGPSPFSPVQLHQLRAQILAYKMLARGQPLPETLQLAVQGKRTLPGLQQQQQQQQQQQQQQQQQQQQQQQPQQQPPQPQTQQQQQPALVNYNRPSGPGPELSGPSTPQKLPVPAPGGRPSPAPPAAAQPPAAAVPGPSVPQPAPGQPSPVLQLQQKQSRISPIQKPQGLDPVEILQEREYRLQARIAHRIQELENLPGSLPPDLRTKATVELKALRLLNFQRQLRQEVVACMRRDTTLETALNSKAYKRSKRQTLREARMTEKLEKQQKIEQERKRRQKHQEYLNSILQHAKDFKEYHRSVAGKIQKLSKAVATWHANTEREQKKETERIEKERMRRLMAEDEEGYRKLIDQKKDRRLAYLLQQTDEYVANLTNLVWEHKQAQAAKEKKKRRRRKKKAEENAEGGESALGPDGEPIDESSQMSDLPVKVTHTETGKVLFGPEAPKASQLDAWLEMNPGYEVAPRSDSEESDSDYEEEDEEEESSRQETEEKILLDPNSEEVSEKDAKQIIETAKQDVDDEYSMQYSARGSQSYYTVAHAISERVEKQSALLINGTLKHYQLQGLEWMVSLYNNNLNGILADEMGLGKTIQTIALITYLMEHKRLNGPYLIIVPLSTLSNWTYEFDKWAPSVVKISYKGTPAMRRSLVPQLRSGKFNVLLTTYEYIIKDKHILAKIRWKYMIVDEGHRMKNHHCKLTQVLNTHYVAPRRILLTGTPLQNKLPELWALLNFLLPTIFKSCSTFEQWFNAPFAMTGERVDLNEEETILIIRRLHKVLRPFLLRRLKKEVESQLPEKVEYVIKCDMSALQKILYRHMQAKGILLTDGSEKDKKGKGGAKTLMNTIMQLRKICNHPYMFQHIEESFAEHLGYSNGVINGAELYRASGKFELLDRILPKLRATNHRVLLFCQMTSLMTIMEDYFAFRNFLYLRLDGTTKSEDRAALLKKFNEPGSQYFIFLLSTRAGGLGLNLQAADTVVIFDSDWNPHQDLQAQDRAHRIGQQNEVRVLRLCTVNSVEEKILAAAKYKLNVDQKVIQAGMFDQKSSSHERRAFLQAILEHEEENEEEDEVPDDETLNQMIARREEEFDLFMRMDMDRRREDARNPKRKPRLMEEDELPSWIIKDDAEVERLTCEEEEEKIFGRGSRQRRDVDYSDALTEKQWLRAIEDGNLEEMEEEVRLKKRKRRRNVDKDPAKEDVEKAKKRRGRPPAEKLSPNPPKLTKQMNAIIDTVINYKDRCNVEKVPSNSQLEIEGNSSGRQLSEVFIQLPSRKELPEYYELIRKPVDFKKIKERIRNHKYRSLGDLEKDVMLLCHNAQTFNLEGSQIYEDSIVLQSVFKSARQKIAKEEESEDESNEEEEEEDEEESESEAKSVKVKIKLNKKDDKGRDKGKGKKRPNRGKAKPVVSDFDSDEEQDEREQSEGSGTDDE
protocol: SMARCA2 HiBiT degradation assay in HeLa cells
Type: cell-based
details: HeLa, 18 hours
test-readout: Dmax

The following compounds have reported results that may help.
| compound | tested-on | Dmax |
| --- | --- | --- |
| C[C@@H]1CN(CC2CCN(c3ccc4c(c3)C(=O)N([C@@H]3CCC(=O)NC3=O)C4)CC2)C[C@H](C)N1C(=O)N1CCN2c3cc(-c4cc(F)cc(F)c4O)nnc3NC[C@H]2C1 | SMARCA2 (Homo sapiens, UniProt P51531) | > 75% |
| C[C@@H]1C[C@H](CN2CCN(c3ccc4c(c3)C(=O)N([C@H]3CCC(=O)NC3=O)C4)CC2)C[C@H](C)N1C(=O)N1CCN2c3cc(-c4cccc(F)c4O)nnc3NC[C@]2(C(F)F)C1 | SMARCA2 (Homo sapiens, UniProt P51531) | > 75% |
| C[C@H]1CN(CC2CCN(c3ccc4c(c3)C(=O)N([C@H]3CCC(=O)NC3=O)C4)CC2)C[C@H](C)N1C(=O)N1CCN2c3cc(-c4cccc(F)c4O)nnc3NC[C@]2(C(F)F)C1 | SMARCA2 (Homo sapiens, UniProt P51531) | > 75% |
| CC12CNc3nnc(-c4cccc(F)c4O)cc3N1CCN(C(=O)C1(F)CCN(CC3CCN(c4ccc5c(c4)C(=O)N([C@H]4CCC(=O)NC4=O)C5)CC3)CC1)C2 (single isomer, unassigned) | SMARCA2 (Homo sapiens, UniProt P51531) | 50 to 75% |

### Prompt State its Dmax: C[C@@H]1CN(CC2CCN(c3ccc4c(c3)C(=O)N(C3CCC(=O)NC3=O)C4)CC2)[C@@H](C)CN1C(=O)N1CCN2c3cc(-c4cccc(F)c4O)nnc3NCC2(C)C1 (some centres unmarked) [Example 57]
### Response > 75%

----------
tested-on: SMARCA4 (Homo sapiens, UniProt P51532)
Construct: SMARCA4-HiBiT knock-in Hela monoclonal cell (CS3023226) were purchased from Promega; host or cells: HeLa (CRISPR HiBiT knock-in monoclonal line, heterozygous)
Sequence (P51532 whole entry): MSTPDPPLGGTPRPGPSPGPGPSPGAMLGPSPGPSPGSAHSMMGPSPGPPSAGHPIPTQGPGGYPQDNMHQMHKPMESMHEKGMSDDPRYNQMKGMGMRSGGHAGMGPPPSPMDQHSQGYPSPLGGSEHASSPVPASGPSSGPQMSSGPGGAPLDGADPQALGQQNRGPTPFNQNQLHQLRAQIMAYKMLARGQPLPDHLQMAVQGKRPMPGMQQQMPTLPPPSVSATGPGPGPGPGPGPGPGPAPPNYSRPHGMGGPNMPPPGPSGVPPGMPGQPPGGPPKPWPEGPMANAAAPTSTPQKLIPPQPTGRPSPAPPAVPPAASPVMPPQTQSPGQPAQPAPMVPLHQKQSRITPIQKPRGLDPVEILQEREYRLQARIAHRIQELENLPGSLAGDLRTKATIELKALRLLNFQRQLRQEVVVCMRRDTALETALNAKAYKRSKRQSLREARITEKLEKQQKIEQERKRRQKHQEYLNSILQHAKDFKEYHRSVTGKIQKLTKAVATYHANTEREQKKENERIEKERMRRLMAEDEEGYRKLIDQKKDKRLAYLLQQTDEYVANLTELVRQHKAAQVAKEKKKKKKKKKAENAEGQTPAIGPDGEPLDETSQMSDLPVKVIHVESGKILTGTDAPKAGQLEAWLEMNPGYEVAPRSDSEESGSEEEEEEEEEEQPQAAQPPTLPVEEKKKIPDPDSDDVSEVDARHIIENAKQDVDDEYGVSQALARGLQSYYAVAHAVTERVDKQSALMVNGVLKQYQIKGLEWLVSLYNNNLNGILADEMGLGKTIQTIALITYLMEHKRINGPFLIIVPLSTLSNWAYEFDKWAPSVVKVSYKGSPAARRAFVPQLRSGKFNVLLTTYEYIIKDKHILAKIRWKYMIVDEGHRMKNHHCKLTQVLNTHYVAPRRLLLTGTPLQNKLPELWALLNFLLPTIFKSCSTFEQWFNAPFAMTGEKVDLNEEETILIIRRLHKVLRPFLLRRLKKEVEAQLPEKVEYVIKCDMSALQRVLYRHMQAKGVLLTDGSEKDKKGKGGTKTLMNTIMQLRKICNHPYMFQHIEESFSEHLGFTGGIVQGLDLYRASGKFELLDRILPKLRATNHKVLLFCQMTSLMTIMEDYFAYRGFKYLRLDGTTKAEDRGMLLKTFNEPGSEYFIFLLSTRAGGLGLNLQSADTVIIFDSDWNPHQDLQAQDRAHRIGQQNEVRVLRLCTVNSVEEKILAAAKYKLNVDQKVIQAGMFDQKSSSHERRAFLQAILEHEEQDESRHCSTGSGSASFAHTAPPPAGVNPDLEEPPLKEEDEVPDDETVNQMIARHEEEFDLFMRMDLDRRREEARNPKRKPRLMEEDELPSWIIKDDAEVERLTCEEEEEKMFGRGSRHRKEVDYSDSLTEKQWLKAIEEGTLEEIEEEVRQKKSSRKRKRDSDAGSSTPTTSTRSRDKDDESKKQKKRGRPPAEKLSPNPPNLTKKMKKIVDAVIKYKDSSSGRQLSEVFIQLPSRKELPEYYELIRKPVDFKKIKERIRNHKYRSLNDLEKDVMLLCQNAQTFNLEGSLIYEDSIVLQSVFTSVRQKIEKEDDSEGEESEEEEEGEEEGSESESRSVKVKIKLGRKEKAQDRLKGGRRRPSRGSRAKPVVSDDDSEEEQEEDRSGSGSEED
protocol: SMARCA4 HiBiT degradation assay in HeLa cells
Assay type: cell-based
details: HeLa, 18 hours
test-readout: Dmax

| molecule | Dmax |
| --- | --- |
| C[C@@H]1CN(CC2CN(c3ccc4c(c3)C(=O)N(C3CCC(=O)NC3=O)C4)C2)C[C@H](C)N1C(=O)N1C[C@@H]2CNc3nnc(-c4cc(F)cc(F)c4O)cc3N2C[C@@H]1C (stereo partly drawn) [Example 24] | < 50% |
| CCC12CNc3nnc(-c4cccc(F)c4O)cc3N1CCN(C(=O)N1[C@@H](C)CN(CC3CCN(c4ccc5c(c4)C(=O)N(C4CCC(=O)NC4=O)C5)CC3)C[C@@H]1C)C2 (single isomer, unassigned) [Example 81] | < 50% |
| CC1(C)CN(CC2CCN(c3ccc4c(c3)C(=O)N(C3CCC(=O)NC3=O)C4=O)CC2)CCN1C(=O)N1CCN2c3cc(-c4cccc(F)c4O)nnc3NCC2(C)C1 (mixture of isomers) [Example 7] | 50 to 75% |
| CC1(C)CN(CC2CCN(c3ccc4c(c3)C(=O)N([C@H]3CCC(=O)NC3=O)C4)CC2)CCN1C(=O)N1CCN2c3cc(-c4cccc(F)c4O)nnc3NCC2(C(F)(F)F)C1 (single isomer, unassigned) [Example 100] | 50 to 75% |
| C[C@@H]1CN(CC2CCN(c3ccc4c(c3)C(=O)N(C3CCC(=O)NC3=O)C4)CC2)C[C@H](C)N1C(=O)N1CCN2c3cc(-c4cc(F)cc(F)c4O)nnc3NC[C@H]2C1 (stereo partly drawn) [Example 15] | 50 to 75% |

For every listed record, write down its Dmax.
1. C[C@H]1CN2c3cc(-c4cc(F)cc(F)c4O)nnc3NC[C@H]2CN1C(=O)N1CCN(CC2CCN(c3ccc4c(c3)C(=O)N(C3CCC(=O)NC3=O)C4)CC2)CC1(C)C (stereo partly drawn) [Example 25]
2. C[C@@H]1CN(C[C@H]2CN(c3ccc4c(c3)CN(C3CCC(=O)NC3=O)C4=O)CCO2)C[C@@H](C)N1C(=O)N1CCN2c3cc(-c4cc(F)cc(F)c4O)nnc3NC[C@H]2C1 (stereo partly drawn) [Example 46]
3. CC1(C)CC(CN2CCN(c3ccc4c(c3)C(=O)N([C@H]3CCC(=O)NC3=O)C4)CC2)CCN1C(=O)N1CCN2c3cc(-c4cccc(F)c4O)nnc3NC[C@@]2(C(F)F)C1 (stereo partly drawn) [Example 73]
4. CC12CNc3nnc(-c4cccc(F)c4O)cc3N1CCN(C(=O)C1(F)CCN(CC3CCN(c4ccc5c(c4)C(=O)N([C@H]4CCC(=O)NC4=O)C5)CC3)CC1)C2 (single isomer, unassigned) [Example 111]
5. C[C@@H]1CN(C[C@H]2CCN(c3ccc4c(c3)C(=O)N(C3CCC(=O)NC3=O)C4)C[C@@H]2F)C[C@H](C)N1C(=O)N1CCN2c3cc(-c4cc(F)cc(F)c4O)nnc3NC[C@H]2C1 (mixture of isomers) [Example 42]
6. C[C@@H]1CN(C[C@H]2CCN(c3ccc4c(c3)C(=O)N(C3CCC(=O)NC3=O)C4)C[C@@H]2F)C[C@H](C)N1C(=O)N1CCN2c3cc(-c4cccc(F)c4O)nnc3NC[C@H]2C1 (single isomer, unassigned) [Example 44]

### Response
["< 50%", "< 50%", "< 50%", "< 50%", "< 50%", "< 50%"]

For every listed record, write down its Dmax.
1. C[C@@H]1CN(CC2CCN(c3ccc4c(c3)C(=O)N(C3CCC(=O)NC3=O)C4)CC2)C[C@@H](C)N1C(=O)N1CCN2c3cc(-c4cccc(F)c4O)nnc3NCC2(C)C1 (single isomer, unassigned) [Example 13]
2. CCC12CNc3nnc(-c4cccc(Cl)c4O)cc3N1CCN(C(=O)N1C[C@H](C)N(CC3CCN(c4ccc5c(c4)C(=O)N([C@H]4CCC(=O)NC4=O)C5)CC3)C[C@H]1C)C2 (single isomer, unassigned) [Example 77]
3. O=C1CCC(N2Cc3ccc(N4CCC(CN5C[C@@H]6[C@H](C5)[C@H]6CN5CCN6c7cc(-c8cc(F)cc(F)c8O)nnc7NC[C@H]6C5)C(F)(F)C4)cc3C2=O)C(=O)N1 (single isomer, unassigned) [Example 40]
4. CCC12CNc3nnc(-c4cccc(F)c4O)cc3N1CCN(C(=O)N1[C@H](C)CN(CC3CCN(c4ccc5c(c4)C(=O)N(C4CCC(=O)NC4=O)C5)CC3)C[C@@H]1C)C2 (single isomer, unassigned) [Example 60]
5. C[C@@H]1C[C@H](CN2CCN(c3ccc4c(c3)C(=O)N([C@H]3CCC(=O)NC3=O)C4)CC2)C[C@H](C)N1C(=O)N1CCN2c3cc(-c4cccc(F)c4O)nnc3NC[C@]2(C(F)F)C1 [Example 72]

### Response
< 50%
50 to 75%
50 to 75%
> 75%
> 75%

For every listed record, write down its Dmax.
1. CC1(C)CN(CC2CCN(c3ccc4c(c3)C(=O)N(C3CCC(=O)NC3=O)C4)CC2)CCN1C(=O)N1CCN2c3cc(-c4cccc(F)c4O)nnc3NC[C@H]2C1 (stereo partly drawn) [Example 5]
2. C[C@H]1CN2c3cc(-c4cc(F)cc(F)c4O)nnc3NC[C@H]2CN1C[C@H]1[C@@H]2CN(CC3CN(c4ccc5c(c4)C(=O)N(C4CCC(=O)NC4=O)C5)CCO3)C[C@@H]21 (stereo partly drawn) [Example 50]

### Response
1. < 50%
2. 50 to 75%

----------
tested-on: SMARCA2 (Homo sapiens)
Construct: SMARCA2-HiBiT knock-in Hela monoclonal cell (CS302366); host or cells: HeLa (CRISPR HiBiT knock-in monoclonal line, heterozygous)
protocol: SMARCA2 HiBiT degradation assay in HeLa cells
Type: cell-based
details: HeLa, 18 hours
test-readout: Dmax

| molecule | tested-on | Dmax |
| --- | --- | --- |
| O=C1CC[C@H](N2Cc3ccc(N4CCN(C[C@H]5CC[C@H](CN6CCN7c8cc(-c9cccc(F)c9O)nnc8NC[C@H]7C6)CC5)CC4)cc3C2=O)C(=O)N1 | SMARCA2 (Homo sapiens) | > 75% |
| O=C1CCC(N2Cc3ccc(N4CCC(CN5CCC(F)(C(=O)N6CCN7c8cc(-c9cc(F)cc(F)c9O)nnc8NC[C@H]7C6)CC5)CC4)cc3C2=O)C(=O)N1 (some centres unmarked) | SMARCA2 (Homo sapiens) | 50 to 75% |
| C[C@@H]1CN(CC2CCN(c3ccc4c(c3)C(=O)N(C3CCC(=O)NC3=O)C4)CC2)C[C@H](C)N1C(=O)N1CCN2c3cc(-c4cccc(Cl)c4O)nnc3NCC2(C)C1 (some centres unmarked) [Example 30] | SMARCA2 (Homo sapiens) | > 75% |
| CCC12CNc3nnc(-c4cccc(Cl)c4O)cc3N1CCN(C(=O)N1C[C@H](C)N(CC3CCN(c4ccc5c(c4)C(=O)N([C@H]4CCC(=O)NC4=O)C5)CC3)C[C@H]1C)C2 (single isomer, unassigned) | SMARCA2 (Homo sapiens) | > 75% |

### Prompt State its Dmax: CCC1CN(CC2CCN(c3ccc4c(c3)C(=O)N(C3CCC(=O)NC3=O)C4)CC2)CCN1C(=O)N1CCN2c3cc(-c4cc(F)cc(F)c4O)nnc3NC[C@H]2C1 (mixture of isomers)
### Response > 75%
